Cited source for all entries: patent US7947717B2

TARGET OF ASSAY: lethal factor (LF) (Bacillus anthracis)
Sequence (P15917 34-809 limits assumed): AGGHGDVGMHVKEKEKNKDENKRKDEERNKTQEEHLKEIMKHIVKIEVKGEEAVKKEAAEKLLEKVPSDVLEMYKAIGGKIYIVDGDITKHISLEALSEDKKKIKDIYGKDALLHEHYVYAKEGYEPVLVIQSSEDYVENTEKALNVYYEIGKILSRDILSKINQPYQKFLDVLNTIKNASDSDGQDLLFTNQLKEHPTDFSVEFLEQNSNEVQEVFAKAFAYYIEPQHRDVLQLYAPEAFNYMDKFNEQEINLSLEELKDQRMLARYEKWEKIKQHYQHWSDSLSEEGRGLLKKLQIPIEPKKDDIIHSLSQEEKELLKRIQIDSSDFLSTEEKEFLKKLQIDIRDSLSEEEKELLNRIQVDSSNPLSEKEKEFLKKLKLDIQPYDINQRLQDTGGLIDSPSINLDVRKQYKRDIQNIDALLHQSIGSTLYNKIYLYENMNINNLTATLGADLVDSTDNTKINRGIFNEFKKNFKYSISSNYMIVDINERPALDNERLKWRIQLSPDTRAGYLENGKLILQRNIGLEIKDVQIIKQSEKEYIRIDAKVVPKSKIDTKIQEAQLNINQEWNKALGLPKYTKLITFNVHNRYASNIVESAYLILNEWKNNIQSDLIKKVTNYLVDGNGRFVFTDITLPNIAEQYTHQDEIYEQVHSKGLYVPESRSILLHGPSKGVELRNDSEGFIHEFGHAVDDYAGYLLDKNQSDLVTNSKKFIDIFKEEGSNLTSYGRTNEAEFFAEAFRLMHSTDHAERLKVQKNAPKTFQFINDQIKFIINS
ASSAY PROTOCOL: biochemical
Type: biochemical
pIC50: −log10 of the molar value.
REPORTED METRIC: pIC50

COMPOUND STRUCTURE | MEASUREMENT QUALIFIER | MEAS VALUE
COc1ccc(-c2ccc(/C=C3\SC(=S)N(CC(=O)O)C3=O)o2)cc1Cl | = | 6.54
O=C(O)CN1C(=O)C(=Cc2cc(-c3ccc(F)cc3)on2)SC1=S | = | 4.91
O=C(O)CN1C(=O)/C(=C/c2c[nH]nc2-c2ccc(C(F)(F)F)cc2)SC1=S | = | 4.61
O=C(O)CN1C(=O)C(=Cc2cc(-c3ccccc3)on2)SC1=S | = | 4.73
O=C(O)CN1C(=O)C(=Cc2cc(-c3ccc(Br)cc3)on2)SC1=S | = | 4.76
O=C(O)CN1C(=O)/C(=C/c2cc(-c3ccc(Cl)cc3)[nH]n2)SC1=S | < | 4.00
Cc1ccc(-c2cc(C=C3SC(=S)N(CC(=O)O)C3=O)no2)cc1 | = | 5.23
